These data points were gathered from patent US20240182453A1.

Target: human metabotropic Glutamate 4 receptor (mGluR4) (Homo sapiens (Human))
Experiment: Assay A: in vitro testing of mGluR4 potency (glutamate-induced cAMP lowering, HTRF cAMP)
Conditions: HEK293 cells overexpressing human mGluR4; 10 uM L-glutamic acid, 1 uM forskolin; compounds of the present invention
parameter: pIC50
Entry type: numeric. Quantity: pIC50, the -log10 of concentration in molar units.

• Cc1cnc(C(=O)N[C@H](c2nc3cc(C(F)(F)F)ccc3n2C2CC2)C2CC2)cn1 = 7.89
• Cc1cnc(C(=O)N[C@H](c2nc3ccc(C(F)(F)F)cc3n2C)C2CC2)cn1 = 7.85
• COCCn1c([C@@H](NC(=O)c2cnc(C)cn2)[C@@H](C)OC(F)F)nc2cc(F)c(F)cc21 = 8.00
• COCCn1c([C@@H](NC(=O)c2cnc(C)cn2)C2CC2)nc2cc(OC(F)F)c(F)cc21 = 8.00

Next up:
Identify measured pIC50 associated with `COCCn1c([C@@H](NC(=O)c2cnc(C)cn2)[C@H]2CCCO2)nc2cc(OC(F)(F)F)ccc21`
8.00

---

Catalogue of pIC50 values
Target: UniProtKB Q14833
Assay: Assay A: in vitro testing of mGluR4 potency (glutamate-induced cAMP lowering, HTRF cAMP)
Conditions: HEK293 cells overexpressing human mGluR4; 10 uM L-glutamic acid, 1 uM forskolin; compounds of the present invention
Units for pIC50: none; it is -log10 of a concentration expressed in mol/L.

Respond only with pIC50 recorded for `COCCn1c([C@@H](NC(=O)c2cnc(C)cn2)C2CC2)nc2cc(C(F)(F)F)ccc21`
8.70

Return reported pIC50. Input molecule: `Cn1c([C@H](CC2CC2)NC(=O)c2cnc(C(F)F)cn2)nc2cc(Cl)ccc21`
7.96

Tell me measured pIC50 for `COCCn1c([C@@H](NC(=O)c2cnc(C)cn2)[C@@H]2CCCO2)nc2cc(OC(F)(F)F)ccc21` please.
8.40

---

Molecular target: human metabotropic Glutamate 4 receptor (mGluR4) (Homo sapiens (Human), UniProt Q14833)
Sequence (Q14833 33-912): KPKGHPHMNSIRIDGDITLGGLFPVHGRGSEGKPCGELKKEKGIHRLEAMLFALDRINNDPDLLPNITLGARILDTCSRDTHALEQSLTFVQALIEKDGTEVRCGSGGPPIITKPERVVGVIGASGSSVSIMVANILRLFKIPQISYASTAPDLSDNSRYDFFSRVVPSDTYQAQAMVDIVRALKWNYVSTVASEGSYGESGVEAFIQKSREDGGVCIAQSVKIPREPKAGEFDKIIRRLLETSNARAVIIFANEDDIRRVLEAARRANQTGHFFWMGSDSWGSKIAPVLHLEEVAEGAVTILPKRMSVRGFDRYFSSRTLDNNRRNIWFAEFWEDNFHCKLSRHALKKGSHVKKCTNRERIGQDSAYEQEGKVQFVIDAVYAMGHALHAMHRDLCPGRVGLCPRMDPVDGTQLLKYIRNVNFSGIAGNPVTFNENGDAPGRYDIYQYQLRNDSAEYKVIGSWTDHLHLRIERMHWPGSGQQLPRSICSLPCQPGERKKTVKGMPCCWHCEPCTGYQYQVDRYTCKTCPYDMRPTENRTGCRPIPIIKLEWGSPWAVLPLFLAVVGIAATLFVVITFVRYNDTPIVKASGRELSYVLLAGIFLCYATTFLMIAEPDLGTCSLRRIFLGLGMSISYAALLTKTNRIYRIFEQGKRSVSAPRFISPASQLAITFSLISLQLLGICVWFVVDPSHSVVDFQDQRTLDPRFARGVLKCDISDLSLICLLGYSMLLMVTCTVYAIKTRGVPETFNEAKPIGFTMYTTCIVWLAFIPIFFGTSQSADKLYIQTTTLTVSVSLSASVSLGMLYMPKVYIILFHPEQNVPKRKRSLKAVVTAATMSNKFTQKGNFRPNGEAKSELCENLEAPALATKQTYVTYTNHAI
Test: Assay A: in vitro testing of mGluR4 potency (glutamate-induced cAMP lowering, HTRF cAMP)
Conditions: HEK293 cells overexpressing human mGluR4; 10 uM L-glutamic acid, 1 uM forskolin; compounds of the present invention
parameter: pIC50
API: returns pIC50 as number; meaning -log10 of concentration in mol/L.

// known answers, use as guide
* CCn1c([C@@H](NC(=O)c2cnc(C)cn2)C2CC2)nc2cc(C(F)(F)F)ccc21 [Example 36] | 8.52
* COCCn1c([C@@H](NC(=O)c2cnc(C)cn2)C2CC2)nc2cc(OC(F)F)ccc21 [Example 13] | 8.15

Shifting focus to the molecule that follows.
Give recorded pIC50. Cc1cnc(C(=O)N[C@H](c2nc3c(Cl)c(Br)ccc3n2C)C2CC2)cn1 [Example 42]
8.70

---

List of log10 of IC50 values.
Target: human metabotropic Glutamate 4 receptor (mGluR4) (Homo sapiens (Human))
Assay: Assay A: in vitro testing of mGluR4 potency (glutamate-induced cAMP lowering, HTRF cAMP)
Conditions: HEK293 cells overexpressing human mGluR4; 10 uM L-glutamic acid, 1 uM forskolin; compounds of the present invention
Give log10 of IC50, with IC50 taken in nM.

The following compounds have reported results that may help.
* Cn1c([C@@H](NC(=O)c2cnc(C(F)F)cn2)C2CC2)nc2cc(Cl)ccc21 | 0.85
* COCCn1c([C@@H](NC(=O)c2cnc(C)cn2)[C@H]2CCCO2)nc2cc(C(F)(F)F)ccc21 (single isomer, unassigned) [Example 19] | 0.48
* CCn1c(C(NC(=O)c2cnc(C)cn2)C2CCOC2)nc2cc(C(F)(F)F)ccc21 (single isomer, unassigned) | 1.04

Given COCCn1c(C(NC(=O)c2cnc(C)cn2)C2CCCO2)nc2cc(C(F)(F)F)ccc21 (centres unmarked) [Example 19-2] , respond with its log10 of IC50.
1.79

Look up and report measured log10 of IC50 for this entry: `O=C(N[C@@H](CC1CC1)c1nc2cc(Cl)ccc2n1C1CC1)c1cnc(C(F)F)cn1`
0.90

---

Biological target: human metabotropic Glutamate 4 receptor (mGluR4) (Homo sapiens (Human), UniProt Q14833)
Assay: Assay A: in vitro testing of mGluR4 potency (glutamate-induced cAMP lowering, HTRF cAMP)
Conditions: HEK293 cells overexpressing human mGluR4; 10 uM L-glutamic acid, 1 uM forskolin; compounds of the present invention
Procedure: A. In Vitro Testing of mGluR4 Potency The in vitro activity of the compounds according to the invention may be investigated as follows: The HEK293 cell overexpressing the human metabotropic Glutamate 4 receptor are thawed at 37° C. and immediately diluted with cell culture medium. […] The emission at 615 nm and 665 nm (Excitation wavelength: 320 nm) are measured on the EnVision™ reader (Perkin Elmer). The ratio between the emission at 665 nm and 615 is calculated by the reader. […]
parameter: pIC50
Friendly reminder that pIC50 comes from taking -log10 of the concentration in mol/L.

Example results:
* O=C(N[C@@H](CC1CC1)c1nc2cc(Cl)ccc2n1CCOC(F)F)c1cnc(C(F)F)cn1 | 8.22
* COCCn1c([C@@H](NC(=O)c2cnc(C(F)F)cn2)[C@@H]2CCOC2)nc2cc(C(F)(F)F)ccc21 | 8.22
* COCCn1c([C@@H](NC(=O)c2cnc(C)cn2)[C@@H]2CCOC2)nc2cc(Cl)ccc21 | 7.96

Kindly indicate its recorded pIC50. Item: `COCCn1c([C@@H](NC(=O)c2cnc(C(F)F)cn2)[C@H]2CCOC2)nc2cc(OC(F)(F)F)ccc21`
7.92

---

# pIC50 annotations
Target: human metabotropic Glutamate 4 receptor (mGluR4) (Homo sapiens (Human), UniProt Q14833)
Experiment: Assay A: in vitro testing of mGluR4 potency (glutamate-induced cAMP lowering, HTRF cAMP)
Settings: HEK293 cells overexpressing human mGluR4; 10 uM L-glutamic acid, 1 uM forskolin; compounds of the present invention
Formally, pIC50 is defined as -log10 of the concentration c, with c in mol/L.

• Cc1cnc(C(=O)N[C@H](c2nc3ccc(C(F)(F)F)cc3n2CC(F)F)[C@@H]2CCOC2)cn1 = 7.39

Fill in reported pIC50 for this entry: `CCn1c([C@@H](NC(=O)c2cnc(C)cn2)C2CC(F)(F)C2)nc2cc(F)ccc21`
8.10

Please give the documented pIC50 of CCn1c(C(NC(=O)c2cnc(C)cn2)C2CCOC2)nc2cc(OC(F)(F)F)ccc21 (single isomer, unassigned) [Example 97-1]
7.92

Using known records, supply pIC50 for `CO[C@H](C)[C@H](NC(=O)c1cnc(C)cn1)c1nc2cc(OC(F)(F)F)ccc2n1C`
8.00

Return pIC50 for the following molecule: COCCn1c(C(NC(=O)c2cnc(C)cn2)C2CCOC2)nc2cc(OC(F)(F)F)ccc21 (single isomer, unassigned)
7.55

Give recorded pIC50. `Cc1cnc(C(=O)N[C@H](c2nc3cc(Cl)ccc3n2C)[C@@H]2CC2(F)F)cn1`
7.92

State, in one line, measured pIC50 of `CCn1c([C@@H](NC(=O)c2cnc(C)cn2)C2CC2)nc2cc(OC(F)F)ccc21`
8.15

Please list pIC50 recorded for the molecule `CCn1c([C@@H](NC(=O)c2cnc(C)cn2)[C@]2(O)CCCOC2)nc2ccc(C(F)(F)F)cc21`
7.85

Return the recorded pIC50 value; entry: COCCn1c(C(NC(=O)c2cnc(C(F)F)cn2)C2CCOC2)nc2cc(C(F)(F)F)ccc21 (centres unmarked)
7.89

Look up and report measured pIC50 for this entry: `COCCn1c([C@H](CC2CC2)NC(=O)c2cnc(C)cn2)nc2cc(F)ccc21`
8.15

Dear colleague, please send me the reported pIC50 for CCn1c(C(NC(=O)c2cnc(C)cn2)C2CCOC2)nc2cc(Cl)ccc21 (single isomer, unassigned) [Example 162] when you can.
7.52

---

Target: UniProtKB Q14833
Experiment: Assay A: in vitro testing of mGluR4 potency (glutamate-induced cAMP lowering, HTRF cAMP)
Settings: HEK293 cells overexpressing human mGluR4; 10 uM L-glutamic acid, 1 uM forskolin; compounds of the present invention
Overview of recorded IC50 for various molecules
All answers are understood in nM, so give the number only.

Solved entries (count: 2):
• CO[C@H](C)[C@H](NC(=O)c1cnc(C)cn1)c1nc2cc(OC(F)(F)F)ccc2n1CCOC(C)C [Example 41] = 2
• Cc1cnc(C(=O)N[C@@H](CC2CC2)c2nc3cc(OC(F)(F)F)ccc3n2C)cn1 [Example 105] = 8

Shift focus to the following entry.
Fill: IC50 (UniProtKB Q14833) for this molecule Cc1cnc(C(=O)N[C@H](c2nc3cc(F)ccc3n2CC(F)F)C2CC2)cn1 [Example 10]
5
